Cited source: BindingDB's records for doi:10.1016/j.ab.2009.08.013

Target: Genome polyprotein [1394-1440]/[1476-1660] (dengue virus type 4, UniProt Q58HT7)
Sequence (Q58HT7 1394-1440): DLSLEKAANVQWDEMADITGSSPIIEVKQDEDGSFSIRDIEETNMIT
Sequence (Q58HT7 1476-1660): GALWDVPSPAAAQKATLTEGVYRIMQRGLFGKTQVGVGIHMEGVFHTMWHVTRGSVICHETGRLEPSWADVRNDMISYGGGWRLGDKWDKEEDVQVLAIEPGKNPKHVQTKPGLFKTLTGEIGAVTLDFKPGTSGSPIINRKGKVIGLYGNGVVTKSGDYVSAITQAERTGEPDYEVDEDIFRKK
pIC50: −log10 of the molar value. Non-standard residues stand in square brackets, D forms with d. Residues, ends and D or L forms follow the SMILES beside them. *: point of attachment. Nle = CCCC[C@H](N)C(=O)O; Bz = O=C(c1ccccc1)*
The label depends only on pIC50: TRUE if it is at least 5, FALSE if it is smaller.

[Q] Can Nc1ccc2c(Nc3ccc(C4=NCCN4)cc3)nnc(Nc3ccc(C4=NCCN4)cc3)c2c1 [phthalazine-based compound, 9] be said to have pIC50 at or above 5?
[A] FALSE

[Q] Can CC1CNC(c2ccc(Nc3nnc(Nc4ccc(C5=NC(C)CN5)cc4)c4ccccc34)cc2)=N1 (stereo unspecified) [phthalazine-based compound, 1] be said to have pIC50 at or above 5?
[A] FALSE

[Q] Can CCCC[C@H](NC(=O)c1ccccc1)C(=O)N[C@@H](CCCCN)C(=O)N[C@@H](CCCNC(=N)N)C(=O)N[C@H](C=O)CCCNC(=N)N [Bz-Nle-Lys-Arg-Arg-H] (Bz-[Nle]KRR-aldehyde) be said to have pIC50 at or above 5?
[A] TRUE

[Q] Can COC(=O)c1ccc(-c2ccc(Nc3nnc(Nc4ccc(C5=NCCN5)cc4)c4ccccc34)cc2)cc1 [phthalazine-based compound, 7] be said to have pIC50 at or above 5?
[A] TRUE

[Q] Can c1ccc2c(Nc3ccc(C4=NCCN4)cc3)nnc(Nc3ccc(C4=NCCN4)cc3)c2c1 [phthalazine-based compound, 8] be said to have pIC50 at or above 5?
[A] FALSE

---

Target: Genome polyprotein [1066-1250,R1182K]/[1394-1440,K1405R,D1408E] (dengue virus type 2, UniProt P14340+P27914, D1408E/K1405R/R1182K)
Construct: 1066-1250; 1394-1440
Sequence (P14340 1394-1440, looked up, stated change not applied): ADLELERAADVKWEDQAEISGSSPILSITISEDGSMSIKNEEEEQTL
Sequence (P27914 1066-1250, looked up, stated change not applied): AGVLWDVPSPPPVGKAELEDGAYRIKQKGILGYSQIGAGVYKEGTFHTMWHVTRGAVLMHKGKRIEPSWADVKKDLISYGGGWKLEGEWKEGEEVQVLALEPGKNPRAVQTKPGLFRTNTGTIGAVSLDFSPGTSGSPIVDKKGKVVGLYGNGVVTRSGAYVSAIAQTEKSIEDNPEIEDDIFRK
Test: Enzyme Inhibition Assay
Conditions: pH 7.5; 37 °C
Non-standard residues stand in square brackets, D forms with d. Residues, ends and D or L forms follow the SMILES beside them. *: point of attachment. Nle = CCCC[C@H](N)C(=O)O; Bz = O=C(c1ccccc1)*
OBSERVABLE: pIC50
Keep in mind that pIC50 stands for -log10 of concentration in molar terms.

[Q] What does the data say about its pIC50? Entry: CCCC[C@H](NC(=O)c1ccccc1)C(=O)N[C@@H](CCCCN)C(=O)N[C@@H](CCCNC(=N)N)C(=O)N[C@H](C=O)CCCNC(=N)N [Bz-Nle-Lys-Arg-Arg-H] (Bz-[Nle]KRR-aldehyde)
[A] 5.05

---

Target: Genome polyprotein [1394-1440]/[1476-1660,T1585M] (dengue virus type 3, UniProt P27915+Q6YMS4, T1585M)
Construct: 1394-1440; 1476-1660
Sequence (P27915 1394-1440, stated change not applied): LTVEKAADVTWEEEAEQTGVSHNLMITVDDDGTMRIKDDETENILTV
Sequence (Q6YMS4 1476-1660, looked up, stated change not applied): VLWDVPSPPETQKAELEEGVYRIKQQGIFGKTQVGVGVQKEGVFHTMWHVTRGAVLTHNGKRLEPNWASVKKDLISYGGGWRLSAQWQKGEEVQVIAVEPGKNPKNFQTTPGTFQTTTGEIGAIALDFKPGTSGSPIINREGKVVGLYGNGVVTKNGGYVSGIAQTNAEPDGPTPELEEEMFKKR
Assay: Enzyme Inhibition Assay
Non-standard residues stand in square brackets, D forms with d. Residues, ends and D or L forms follow the SMILES beside them. *: point of attachment. Nle = CCCC[C@H](N)C(=O)O; Bz = O=C(c1ccccc1)*
What log10(IC50) was measured for each of the following?
Kindly note that the scale is log10 and the underlying IC50 is in µM.

[Q] What does the data say about its log10(IC50)? Entry: c1ccc(-c2ccc(Nc3nnc(Nc4ccc(C5=NCCN5)cc4)c4ccccc34)cc2)cc1 [phthalazine-based compound, 2]
[A] 0.20

[Q] What does the data say about its log10(IC50)? Entry: COC(=O)c1ccc(-c2ccc(Nc3nnc(Nc4ccc(C5=NCCN5)cc4)c4ccccc34)cc2)cc1 [phthalazine-based compound, 7]
[A] 0.00

[Q] What does the data say about its log10(IC50)? Entry: CCCC[C@H](NC(=O)c1ccccc1)C(=O)N[C@@H](CCCCN)C(=O)N[C@@H](CCCNC(=N)N)C(=O)N[C@H](C=O)CCCNC(=N)N [Bz-Nle-Lys-Arg-Arg-H] (Bz-[Nle]KRR-aldehyde)
[A] 0.90

[Q] What does the data say about its log10(IC50)? Entry: CC1CNC(c2ccc(Nc3nnc(Nc4ccc(C5=NC(C)CN5)cc4)c4ccccc34)cc2)=N1 (stereo not given) [phthalazine-based compound, 1]
[A] 1.24

[Q] What does the data say about its log10(IC50)? Entry: c1ccc2c(Nc3ccc4c(c3)CNCC4)nnc(Nc3ccc(C4=NCCN4)cc3)c2c1 [phthalazine-based compound, 4]
[A] 2.00

[Q] What does the data say about its log10(IC50)? Entry: c1ccc2c(Nc3ccc4c(c3)CCNC4)nnc(Nc3ccc(C4=NCCN4)cc3)c2c1 [phthalazine-based compound, 6]
[A] 1.93

[Q] What does the data say about its log10(IC50)? Entry: NCc1ccc(Nc2nnc(Nc3ccc(C4=NCCN4)cc3)c3ccccc23)cc1 [phthalazine-based compound, 5]
[A] 0.94

[Q] What does the data say about its log10(IC50)? Entry: c1ccc2c(Nc3ccc(C4=NC5CCCCC5N4)cc3)nnc(Nc3ccc(C4=NC5CCCCC5N4)cc3)c2c1 (stereo not given) [phthalazine-based compound, 3]
[A] 0.93

[Q] What does the data say about its log10(IC50)? Entry: c1ccc2c(Nc3ccc(C4=NCCN4)cc3)nnc(Nc3ccc(C4=NCCN4)cc3)c2c1 [phthalazine-based compound, 8]
[A] 1.45
